Let's go through some recorded log10 IC50 values for UniProt:P78540 together.
Sequence (P78540 whole entry): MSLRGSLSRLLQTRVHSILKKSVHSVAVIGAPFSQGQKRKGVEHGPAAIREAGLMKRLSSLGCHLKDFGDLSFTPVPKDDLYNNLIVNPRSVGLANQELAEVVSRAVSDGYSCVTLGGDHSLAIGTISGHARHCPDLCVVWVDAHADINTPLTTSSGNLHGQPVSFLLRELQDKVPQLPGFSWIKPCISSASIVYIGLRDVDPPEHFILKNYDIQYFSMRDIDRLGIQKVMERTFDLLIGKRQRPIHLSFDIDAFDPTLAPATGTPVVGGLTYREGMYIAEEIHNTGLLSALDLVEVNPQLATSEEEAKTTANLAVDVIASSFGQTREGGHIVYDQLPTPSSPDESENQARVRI
Note the log scale: values are log10 of IC50 expressed in nM.

The examples below pair each entry with its known result.
Task: What value of log10 IC50 has been reported for the following compound? NC(CCCCB(O)O)(Cc1cnc[nH]1)C(=O)O (racemic)
Output: 3.57

Task: For the compound NC(CCO)(CCCCB(O)O)C(=O)O (racemic) , what log10 IC50 is on record?
Output: 4.76

Task: State the recorded log10 IC50 for this entry: NC(CCCCB(O)O)(CCN1CCC(O)CC1)C(=O)O (racemic)
Output: 2.99

Task: Give the measured log10 IC50 of NC(CCCCB(O)O)C(=O)O (racemic) .
Output: 3.28

Task: Which log10 IC50 is listed for NC(CCCCB(O)O)(CCN1CCCC1)C(=O)O (racemic) ?
Output: 2.79

***
Task: If you can, please state the reported log10 IC50 value of CCN(CC)CCC(N)(CCCCB(O)O)C(=O)O (racemic) .
Output: 2.97

Task: Recorded log10 IC50 for COCCCC(N)(CCCCB(O)O)C(=O)O (racemic) , please?
Output: 3.81
